Origin of the recorded values: the MegaScale stability set (Tsuboyama et al. 2023)

B1: HHH_rd2_0155 (parent)
chain: PPDDERKKAEKAARSGNEEKAREILERLGYSEDEARELAKRLR

- Variants of: B1
- Experiment summary: folding stability dG (cDNA display proteolysis); higher = more stable
- Study conditions: PBS, room temperature
Quantity name: folding stability dG (kcal/mol)
Provide the reading as a plain figure in kcal/mol.

Retrieve folding stability dG measured for I24N and print it.
0.514

Retrieve folding stability dG measured for S15F and print it.
1.65

Retrieve folding stability dG measured for D33E and print it.
2.19

Retrieve folding stability dG measured for E34G and print it.
0.998

Retrieve folding stability dG measured for I24R and print it.
0.756

Retrieve folding stability dG measured for L38A and print it.
0.925

Retrieve folding stability dG measured for E10W and print it.
2.31

Retrieve folding stability dG measured for R22S and print it.
1

Retrieve folding stability dG measured for P1N and print it.
2.41

Retrieve folding stability dG measured for L28T and print it.
0.615

Retrieve folding stability dG measured for E32D and print it.
1.4

Retrieve folding stability dG measured for S15L and print it.
1.95

Retrieve folding stability dG measured for A39E and print it.
0.651

Retrieve folding stability dG measured for P1T and print it.
2.36

Retrieve folding stability dG measured for Y30P and print it.
0.57

Retrieve folding stability dG measured for E19K and print it.
2.18

Retrieve folding stability dG measured for S15Q and print it.
2.21

Retrieve folding stability dG measured for G16A and print it.
1.15

Retrieve folding stability dG measured for R27I and print it.
1.28

Retrieve folding stability dG measured for K20T and print it.
1.77

Retrieve folding stability dG measured for L25R and print it.
0.127

Retrieve folding stability dG measured for A21H and print it.
0.916

Retrieve folding stability dG measured for A21P and print it.
0.632

Retrieve folding stability dG measured for K7H and print it.
1.85

Retrieve folding stability dG measured for A21K and print it.
0.641

Retrieve folding stability dG measured for A21L and print it.
1.81

Retrieve folding stability dG measured for E18W and print it.
2.32

Retrieve folding stability dG measured for I24L and print it.
1.57

Retrieve folding stability dG measured for S15P and print it.
0.861

Retrieve folding stability dG measured for K11I and print it.
2.45

Retrieve folding stability dG measured for L28Y and print it.
0.983

Retrieve folding stability dG measured for K40W and print it.
2.08

Retrieve folding stability dG measured for E18P and print it.
1.23

Retrieve folding stability dG measured for D3Y and print it.
1.93

Retrieve folding stability dG measured for A12K and print it.
1.01

Retrieve folding stability dG measured for A12N and print it.
1.04

Retrieve folding stability dG measured for A21I and print it.
1.68

Retrieve folding stability dG measured for A9V and print it.
1.29

Retrieve folding stability dG measured for R22H and print it.
0.903

Retrieve folding stability dG measured for R6Y and print it.
3.31

Retrieve folding stability dG measured for A12V and print it.
1.49

Retrieve folding stability dG measured for R41V and print it.
1.35

Retrieve folding stability dG measured for E34T and print it.
1.34

Retrieve folding stability dG measured for R43H and print it.
1.91

Retrieve folding stability dG measured for R27W and print it.
1.44

Retrieve folding stability dG measured for E23R and print it.
2.21
